Kd values for the binders below.
- Assay target: T1, cynomolgus IL-18BP (cynomolgus monkey)
- T1 construct: also called cyno IL-18BP; cyIL-18BP
- T1 chain: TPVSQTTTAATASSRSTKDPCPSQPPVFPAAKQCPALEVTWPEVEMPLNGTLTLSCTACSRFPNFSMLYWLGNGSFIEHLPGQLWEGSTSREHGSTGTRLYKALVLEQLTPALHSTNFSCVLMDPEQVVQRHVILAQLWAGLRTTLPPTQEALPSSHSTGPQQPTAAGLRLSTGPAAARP
- Assay name: BLI, apparent KD
Kindly answer with a numeric value in nM, unit omitted.

Answered examples (2):
INSERT INTO measurements (binder, quantity_measured, unit_abbreviation, reported_measurement) VALUES
  ('SA301a HC-I51K (antibody, name in Kabat numbering, V domains shown, IgG1 kappa) VH: QVQLQESGPGLVKPSQTLSLTCTVSGYSITSDYNSHWIRQPPGKGLEWIGYKHYSGSTNYNPSLKSRVTISRDTSKNQFSLKLSSVTAADTAVYYCARNYGSIYVNYFDYWGQGTLVTVSS VL: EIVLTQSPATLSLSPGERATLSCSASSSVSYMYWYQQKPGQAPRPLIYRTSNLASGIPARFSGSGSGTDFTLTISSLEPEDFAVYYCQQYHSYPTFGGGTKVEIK', 'Kd', 'nM', 0.59),
  ('SA301a HC-I51T (antibody, name in Kabat numbering, V domains shown, IgG1 kappa) VH: QVQLQESGPGLVKPSQTLSLTCTVSGYSITSDYNSHWIRQPPGKGLEWIGYTHYSGSTNYNPSLKSRVTISRDTSKNQFSLKLSSVTAADTAVYYCARNYGSIYVNYFDYWGQGTLVTVSS VL: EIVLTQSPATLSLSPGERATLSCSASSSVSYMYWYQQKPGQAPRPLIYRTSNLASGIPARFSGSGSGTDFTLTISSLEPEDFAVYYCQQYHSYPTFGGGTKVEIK', 'Kd', 'nM', 0.78);

// next item, Kd requested
Need Kd of SA301a HC-H52D (antibody, name in Kabat numbering, V domains shown, IgG1 kappa) VH: QVQLQESGPGLVKPSQTLSLTCTVSGYSITSDYNSHWIRQPPGKGLEWIGYIDYSGSTNYNPSLKSRVTISRDTSKNQFSLKLSSVTAADTAVYYCARNYGSIYVNYFDYWGQGTLVTVSS VL: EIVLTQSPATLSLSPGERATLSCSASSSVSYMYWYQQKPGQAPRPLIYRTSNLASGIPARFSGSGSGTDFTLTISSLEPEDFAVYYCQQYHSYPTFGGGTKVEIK , thanks. 0.91
